# measurementTarget: T1, L-selectin (CD62L, SELL) (Homo sapiens, UniProt P14151 P14151:39-332)
# T1 sequence: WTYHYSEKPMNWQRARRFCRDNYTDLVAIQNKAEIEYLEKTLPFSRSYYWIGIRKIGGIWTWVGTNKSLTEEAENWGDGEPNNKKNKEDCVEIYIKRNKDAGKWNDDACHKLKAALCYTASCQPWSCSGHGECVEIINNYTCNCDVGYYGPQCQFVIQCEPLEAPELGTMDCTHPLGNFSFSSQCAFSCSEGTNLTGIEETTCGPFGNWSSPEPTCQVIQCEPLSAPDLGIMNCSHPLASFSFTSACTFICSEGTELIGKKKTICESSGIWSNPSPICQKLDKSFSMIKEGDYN
# protocolNotes: BLI; +/-0.203; 1:1 fit poor (R2 0.9029); aptamer immobilised; DPBS Ca/Mg + 5 mM MgCl2, 1% BSA, tRNA, salmon sperm DNA, Tween-20
# testParameters: tags: recombinant human CD62L, R&D Systems; label: 5' 6-FAM, Cy5 or biotin (hexaethylene glycol spacer)
experimentalEndpoint: Kd (nM)

- binder: "CD62LApt.88 (A1, L-SA.88) (ssDNA) DNA: ATCCAGAGTGACGCAGCATAGTCAAGGCGATAGACGAAAAACATTGTTTTCCTGGAAGGCCCAGAATCTGTGGACACGGTGGCTTAGT"
  val: 4.91
